The reader will find reported hERG current change (%, negative = inhibition) at 10uM values listed item by item below.
target: human ether-à-go-go-related gene (hERG) potassium channel (human); assay: primary screen, population patch clamp on CHO cells stably expressing hERG; higher = less effect of the substance;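 also: peak tail current of the secondary pulse compared with the same well before compound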
Sequence (Q12809 whole entry, looked up): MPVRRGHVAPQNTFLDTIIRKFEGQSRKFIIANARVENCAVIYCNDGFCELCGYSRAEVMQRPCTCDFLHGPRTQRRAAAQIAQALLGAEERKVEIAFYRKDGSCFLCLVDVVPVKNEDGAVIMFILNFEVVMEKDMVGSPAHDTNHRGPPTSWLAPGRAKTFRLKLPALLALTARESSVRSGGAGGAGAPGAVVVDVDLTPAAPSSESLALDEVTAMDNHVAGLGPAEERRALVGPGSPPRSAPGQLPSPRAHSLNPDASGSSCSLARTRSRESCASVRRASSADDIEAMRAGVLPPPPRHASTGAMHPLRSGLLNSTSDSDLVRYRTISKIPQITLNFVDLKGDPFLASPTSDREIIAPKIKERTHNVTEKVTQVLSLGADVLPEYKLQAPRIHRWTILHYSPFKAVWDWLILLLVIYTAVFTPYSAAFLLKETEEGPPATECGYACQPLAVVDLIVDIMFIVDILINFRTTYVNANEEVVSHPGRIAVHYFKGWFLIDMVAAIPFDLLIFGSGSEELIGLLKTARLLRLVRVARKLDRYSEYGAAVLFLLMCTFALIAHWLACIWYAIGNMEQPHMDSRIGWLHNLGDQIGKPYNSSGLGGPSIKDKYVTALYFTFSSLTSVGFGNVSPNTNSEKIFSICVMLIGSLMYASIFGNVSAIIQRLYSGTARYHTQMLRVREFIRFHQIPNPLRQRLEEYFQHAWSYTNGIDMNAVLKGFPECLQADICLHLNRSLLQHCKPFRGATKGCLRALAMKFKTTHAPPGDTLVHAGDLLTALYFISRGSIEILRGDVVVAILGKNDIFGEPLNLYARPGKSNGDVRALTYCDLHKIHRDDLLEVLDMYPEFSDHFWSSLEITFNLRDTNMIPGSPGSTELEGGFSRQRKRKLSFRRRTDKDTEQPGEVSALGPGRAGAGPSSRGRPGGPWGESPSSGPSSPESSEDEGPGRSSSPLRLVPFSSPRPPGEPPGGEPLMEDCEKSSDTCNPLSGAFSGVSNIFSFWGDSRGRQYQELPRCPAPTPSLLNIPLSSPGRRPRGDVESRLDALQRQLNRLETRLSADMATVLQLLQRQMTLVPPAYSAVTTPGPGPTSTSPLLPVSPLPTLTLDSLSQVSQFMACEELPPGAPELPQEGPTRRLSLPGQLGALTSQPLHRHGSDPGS
Among all 310,000 compounds or so, about 14,000 (4.5%) showed an effect of 50% or more. Effects have a minus sign here. The entries come from a sample that favours strong results as a whole.
Supply the numeric figure in %, leaving out any unit text.

Here is how some compounds turned out for hERG current change (%, negative = inhibition) at 10uM.
- CCOc1ccc(OCCSc2nc3ccccc3[nH]2)cc1: -0.985
- Cc1ccc(/C=C/c2nnc(-c3ccc(C)cc3)o2)cc1: 11.3
- C#CCOCCOCCOCCNc1nc(N2CCN(C(=O)Cn3cc(CCO)nn3)CC2)nc(N2CCN(C(=O)[C@H]([C@@H](C)O)n3cc(CCCC[NH3+])nn3)CC2)n1.[Cl-]: 12.3
- CCC1CCCCN1Cc1nc(Cc2ccccc2Cl)no1 (stereo not shown): -10.4
- Cc1ccc(C2=CC(=O)C[C@H](c3ccc(Cl)cc3)C2)cc1: 8.09
- Cc1cc(C(=O)N2CCN(c3ccc([N+](=O)[O-])cc3)CC2)n[nH]1: -78.5

Notebook: pull reported hERG current change (%, negative = inhibition) at 10uM for human ether-à-go-go-related gene (hERG) potassium channel (human), entry Cc1cc(C(=O)N2CCN(c3ccc([N+](=O)[O-])cc3)CC2)co1
-75.5

Notebook: pull reported hERG current change (%, negative = inhibition) at 10uM for human ether-à-go-go-related gene (hERG) potassium channel (human), entry CCOC(=O)c1cc(-c2ccccc2)nn1CC1CC(c2ccc(Cl)cc2)=NO1 (stereo not shown)
-16.2

Notebook: pull reported hERG current change (%, negative = inhibition) at 10uM for human ether-à-go-go-related gene (hERG) potassium channel (human), entry CCCNC(=O)c1onc(CSc2cccc(OC)c2)c1C(=O)NCCC
-7.12

Notebook: pull reported hERG current change (%, negative = inhibition) at 10uM for human ether-à-go-go-related gene (hERG) potassium channel (human), entry CCc1ccccc1NC(=O)CSc1n[nH]c(C)c1[N+](=O)[O-]
-8.12

Notebook: pull reported hERG current change (%, negative = inhibition) at 10uM for human ether-à-go-go-related gene (hERG) potassium channel (human), entry O=C(c1cc2ccccc2cc1O)N1CCN(c2ccc([N+](=O)[O-])cc2)CC1
-40.3
